Let's go through some IC50 measurements on Alkaline phosphatase, tissue-nonspecific isozyme (Homo sapiens) together.

COc1ccc(C)cc1S(=O)(=O)Nc1cnc2ccccc2c1
649 nM

State measured IC50 of the molecule Cc1nc(Br)cn1CC(=O)c1ccc(O)c(O)c1 with Alkaline phosphatase, tissue-nonspecific isozyme (Homo sapiens).
8740 nM

---

Let's go through some pIC50 measurements on Alkaline phosphatase, tissue-nonspecific isozyme (Homo sapiens) (UniProt P05186) together.
Sequence (P05186 whole entry, looked up): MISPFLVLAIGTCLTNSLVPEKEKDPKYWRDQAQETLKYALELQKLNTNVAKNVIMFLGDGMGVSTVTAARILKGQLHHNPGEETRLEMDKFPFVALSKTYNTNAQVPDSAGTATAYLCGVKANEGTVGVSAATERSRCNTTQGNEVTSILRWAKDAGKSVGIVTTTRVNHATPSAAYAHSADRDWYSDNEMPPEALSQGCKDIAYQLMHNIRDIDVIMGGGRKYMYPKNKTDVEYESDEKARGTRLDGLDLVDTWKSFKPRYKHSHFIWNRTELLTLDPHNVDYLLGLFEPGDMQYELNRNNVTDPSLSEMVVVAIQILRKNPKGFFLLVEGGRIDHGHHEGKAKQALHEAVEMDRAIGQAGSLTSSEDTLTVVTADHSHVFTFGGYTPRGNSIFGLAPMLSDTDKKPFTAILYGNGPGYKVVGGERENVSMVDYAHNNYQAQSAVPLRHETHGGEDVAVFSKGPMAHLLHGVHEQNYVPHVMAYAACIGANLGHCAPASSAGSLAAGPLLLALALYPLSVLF
pIC50: −log10 of the molar value.
PARAMETER: pIC50

These solved cases illustrate the format of a correct answer.
Cc1cn(CC(=O)c2ccc(O)c(O)c2)cn1
4.39
CN(C)C(=O)c1cc(-c2cc(F)c(Cl)cc2Cl)n[nH]1
6.49
O=C(NCCCO)c1cc(-c2ccc(Cl)cc2Cl)n[nH]1
7.50

a = COc1cc(S(=O)(=O)Nc2cccnc2)c(OC)cc1Cl
b = O=C1C2C3C=CC(C3)C2C(=O)N1c1n[nH]c(CCc2ccccc2)n1 (centres undefined)
Of a and b , which shows the smaller pIC50 value? State your choice using its label.
b
(b: 4.51, a: 5.95)

A = COc1cc(S(=O)(=O)Nc2cccnc2)c(OC)cc1Br
B = CCN1CCN(C(=O)c2cc(-c3ccc(Cl)cc3Cl)n[nH]2)CC1
Of A and B , which shows the smaller pIC50 value? State your choice using its label.
A
(A: 5.81, B: 6.31)
